Origin of values: the supplement of paper PMC9732359

experiment: protein stability index of a GFP-peptide fusion (yeast GPS) (PSI 1-4); higher = more stable; sorted into four equal gates, so the index is relative within each strain; details: doa10∆
MEASURED_ENDPOINT: protein stability index

RESIDUE_SEQUENCE | MEASURED_ENDPOINT | READING
LRSTENGIVDQVLVTTN [RPB2] | protein stability index | 2.39
LLKEKPNALKPLSESLR [RRP6] | protein stability index | 2.71
HEDLVNSIESKNLSLQT [COR1] | protein stability index | 2.96
ISKHSKQAIYTRATASE [RPS25A] | protein stability index | 1.98
MAKVEVNLAAIPLGKNV [RIP1] | protein stability index | 3.33
ADTIDHDELIDSIPRDV [YGL172W/NUP49] | protein stability index | 2.95
PSKKLKTEDGFVIPALP [RPC82] | protein stability index | 3.08
ILGIHTSKMNLSEDVNL [RPT2] | protein stability index | 3.03
DALQDVEESSEKKQKTE [DPB4] | protein stability index | 3.2
KNKGLVVSPYDYNHKRV [DIB1] | protein stability index | 3.18
NAGTDIVMEDHGVLQGT [MED1] | protein stability index | 3.11
LDNKGSGEDAEEELWNS [YIL149C/MLP2] | protein stability index | 3.31
VSNLMGRNIGHPIIQDK [RPB3] | protein stability index | 3.42
ASLVDYVQVRQPIFVAH [RPS5] | protein stability index | 1.99
FVKPGTALDAEGAARGT [DIS3] | protein stability index | 3.1
NDPEILKKIASIPNLFP [SWI1] | protein stability index | 2.36
MLGIRSSVKTCFKPMSL [RIP1] | protein stability index | 2.9
GEITKTENEKFISYHDK [NUT1] | protein stability index | 3.31
